# protocolDetails: qHTS assay for identifying genotoxic compounds that show differential cytotoxicity against isogenic chicken DT40 cell lines with known DNA damage response pathways - Rev3 mutant cell line (AID 743014); further: nearly all actives have a fitted effect of over 55% in size
# measurementConditions: chicken DT40 Rev3-/- viability, CellTiter-Glo, 40 h; series mostly up to 68.4 µM
Records with an inconclusive call do not appear. Active and inactive are the calls of the source. The call rests on the fitted dose curve; in most records, active means well fitted cell-killing curve with a large enough effect in the repeat runs; inconclusive means weak or mixed curves, or effect the other way; inactive means no such curve, though single readings can be large or run the other way. Starred links: 1 amine or outer side, 2 acyl side, 3 side chain; linkers in the order of their positions; H or OH if unused. Positions of bridges follow the written chain, without caps; N, C: chain ends. Non-standard residues stand in square brackets, D forms with d. Residues, ends and D or L forms follow the SMILES beside them. *: point of attachment. X5 = NC1=N[C@@H]([C@H](N[*:1])C(=O)[*:2])C[C@H](O)N1; ΔAla(Z-3-ureido) = NC(=O)N/C=C(\N)C(=O)O; β3hOrn = NCCC[C@H](N)CC(=O)*; Dap = NC[C@H](N)C(=O)O
Hi! Could you answer with just one of these? active, inactive

Write down the call the test reported for this molecule. Item: CCCC1C(=O)N2C(N(C)C)=Nc3ccc(C)cc3N2C1=O (stereo not drawn)
inactive

Test call, this molecule: CC(C)(S)[C@@H](N)C(=O)O
inactive

Tell me the assay call for CC1(C)S[C@@H]2[C@H](NC(=O)C3(N)CCCCC3)C(=O)N2[C@H]1C(=O)O please.
inactive

Outcome? CC(C)CN(C[C@@H](OP(=O)(O)O)[C@H](Cc1ccccc1)NC(=O)O[C@H]1CCOC1)S(=O)(=O)c1ccc(N)cc1
inactive

Which outcome was assigned to CCCCCCCCCCCCCCCC(=O)OC[C@@H](NC(=O)C(Cl)Cl)[C@H](O)c1ccc([N+](=O)[O-])cc1 in this test?
inactive

Can you look up the reported call for CN1CCC(CN2c3ccccc3Sc3ccccc32)C1 (stereo not drawn) for me?
active

Which outcome was entered for the molecule CC1=C(/C=C/C(C)=C/C=C/C(C)=C/C(=O)Oc2c(C)c(C)c3c(c2C)CC[C@@](C)(CCC[C@H](C)CCC[C@H](C)CCCC(C)C)O3)C(C)(C)CCC1 in this test?
inactive

For NCCC[C@H](N)CC(=O)N[C@H]1CNC(=O)[C@H]([C@H]2C[C@H](O)NC(N)=N2)NC(=O)/C(=C/NC(N)=O)NC(=O)[C@H](CO)NC(=O)[C@H](CO)NC1=O (β3hOrn-[Dap]SS[ΔAla(Z-3-ureido)][X5]; lactam 1-C) , what call appears in the results of this test?
inactive

Each molecule tested received a call. Report the one for C#C[C@]1(OC(C)=O)CC[C@H]2[C@@H]3CCC4=CC(=O)CC[C@@H]4[C@H]3CC[C@@]21C .
active

Please share the test call associated with CC[C@@]1(O)C[C@H](O[C@H]2C[C@H](N(C)C)[C@H](O[C@H]3C[C@H](O)[C@H](O[C@H]4CCC(=O)[C@H](C)O4)[C@H](C)O3)[C@H](C)O2)c2c(cc3c(c2O)C(=O)c2c(O)cccc2C3=O)[C@H]1C(=O)OC .
active

Name the outcome recorded for O=S(=O)(O)Oc1ccc(C(c2ccc(OS(=O)(=O)O)cc2)c2ccccn2)cc1 in the assay.
inactive

Outcome? C/C(=C(\CCOC(=O)c1ccccc1)SS/C(CCOC(=O)c1ccccc1)=C(/C)N(C=O)Cc1cnc(C)nc1N)N(C=O)Cc1cnc(C)nc1N
active

I would be grateful if you could indicate the recorded call for C#C[C@]1(O)CC[C@H]2[C@@H]3CCC4=CCCC[C@@H]4[C@H]3C(=C)C[C@@]21CC .
active

----------
# protocolDetails: qHTS assay to test for compound auto fluorescence at 590 nm (red) in HepG2 cells (AID 720674)
# measurementConditions: HepG2 autofluorescence, red 540/590 nm, 1 h; series mostly up to 46 µM
Active and inactive are the calls of the source. Calls follow the shape of the dose curve; as a rule, active = well fitted curve in the direction sought with a large enough effect in the repeat runs; inconclusive = weak or mixed curves; inactive = flat fitted curve, though single readings scatter.
assayReadout: outcome

Solved cases below.
molecule	outcome
CC1(C)[C@@H]2CC[C@@]1(C)[C@H](OC(=O)CSC#N)C2	inactive
C[C@]12CCC(=O)C=C1CC[C@@H]1[C@@H]2[C@@H](O)C[C@@]2(C)[C@H]1CC[C@]2(O)C(=O)COP(=O)(O)O	inactive
C#C[C@]1(O)CC[C@H]2[C@@H]3CCC4=C(CCC(=O)C4)[C@H]3CC[C@@]21C	inactive
CCN(CC)c1ccc(N=Nc2ccc(S(=O)(=O)N(C)C)cc2)c(S(=O)(=O)NCC[n+]2ccccc2)c1	inactive
O=C(Nc1ccc(Br)cc1)c1cc(Br)c(Br)s1	inactive

Answer with reported outcome of CC(=O)O[C@H]1CC[C@@]2(C)C(=CC[C@@H]3[C@@H]2CC[C@]2(C)C(c4cccnc4)=CC[C@@H]32)C1
inactive

----------
# experimentalSystem: Aromatase (Homo sapiens)
# protocolDetails: qHTS assay to identify aromatase inhibitors (AID 743083); further: nearly all actives have a fitted effect of over 55% in size
# measurementConditions: MCF-7 aro ERE, testosterone-driven ERE luciferase, 24 h; series mostly up to 70.3 µM
Inconclusive results are not listed. The source made the active and inactive calls. Calls follow the shape of the dose curve; as a rule, active = well fitted inhibition curve with a large enough effect in the repeat runs; inconclusive = weak or mixed curves; inactive = no such curve, though single readings can be large or run the other way.
Entry note: the call must match one of active, inactive

Each compound tested received a call. Report the one for CC(CN1c2ccccc2Sc2cccnc21)N(C)C (stereo not drawn) .
inactive

Which outcome was assigned to CC(=O)Oc1cccc(C(=O)O)c1OC(C)=O in this test?
inactive

Hey, what did the test say about Nc1ncnc2c1ncn2[C@@H]1O[C@H](COP(=O)(O)OP(=O)(O)OP(=O)(O)O)[C@@H](O)[C@H]1O ?
inactive

Check the results log: what was the call for OCCN1CCN(CC/C=C2/c3ccccc3Sc3ccc(Cl)cc32)CC1 ?
inactive

Called result for CCCCCCCCCCCCCCCCCC(=O)OCCO
inactive

What is the recorded call for this compound in the test? CC[C@@]1(O)C(=O)OCc2c1cc1n(c2=O)Cc2cc3c([N+](=O)[O-])cccc3nc2-1
active

Record lookup: outcome of this test for OC[C@@H](O)C(O)[C@H](O)CO ?
inactive

Which result was noted for this compound in the test: CCCCCCCCCCCCCCCC(=O)OC[C@@H](COP(=O)([O-])OCC[N+](C)(C)C)OC(=O)CCCCCCCCCCCCCCC
inactive

Identify the outcome logged in this assay for the compound shown: CC(=O)Nc1c(I)c(C(=O)N[C@H]2C(O)O[C@H](CO)[C@@H](O)[C@@H]2O)c(I)c(N(C)C(C)=O)c1I (stereo partly drawn)
inactive

Tell me the recorded outcome of this test for CC1C(=O)CC2C3(C)CCC2(C(C)C(=O)O)C(=O)C13 (stereo not drawn) .
inactive

// return assay outcome for C[N+]1(C)[C@@H]2CC(OC(=O)C(O)(c3cccs3)c3cccs3)C[C@H]1[C@@H]1O[C@@H]12 (stereo partly drawn)
inactive

What outcome does the record of this test show for FCOC(C(F)(F)F)C(F)(F)F ?
inactive

Recorded test outcome, item C[C@]12CCC(=O)C=C1CC[C@@H]1[C@@H]2[C@@H](O)C[C@@]2(C)[C@H]1CC[C@]2(O)C(=O)COP(=O)(O)O
inactive

Entry CC(=O)Oc1c(C)cc(OCC(O)CNC(C)C)c(C)c1C (stereo not drawn) : call = ?
inactive

What is the recorded call for this compound in the test? CC(=O)N[C@@H]1C(O[C@H]2O[C@H](C(=O)O)C(O)[C@H](O)[C@H]2O)[C@H](O)[C@@H](CO)O[C@H]1O[C@@H]1C(C(=O)O)O[C@@H](O[C@H]2[C@H](O)[C@@H](CO)OC(O)[C@@H]2NC(C)=O)[C@H](O)[C@H]1O (stereo partly drawn)
inactive

Please share the test call associated with CN1[C@@H]2CCC[C@H]1CC(NC(=O)c1nn(C)c3ccccc13)C2 (stereo partly drawn) .
inactive

// return assay outcome for CC(C)CN(C[C@@H](O)[C@H](Cc1ccccc1)NC(=O)O[C@H]1CO[C@H]2OCC[C@H]21)S(=O)(=O)c1ccc(N)cc1
inactive

Tell me the assay call for CO/N=C(\C(=O)N[C@@H]1C(=O)N2C(C(=O)O)=C(CSC(=O)c3ccco3)CS[C@H]12)c1csc(N)n1 please.
inactive

----------
# protocolDetails: qHTS assay to identify small molecule antagonists of the thyroid receptor (TR) signaling pathway - cell viability counter screen (AID 743064); further: nearly all actives have a fitted effect of over 50% in size
# measurementConditions: GH3.TRE-Luc viability, CellTiter-Fluor, 24 h; series mostly up to 70.3 µM
Inconclusive results are not listed. Activity calls are given as the source filed them. Calls follow the shape of the dose curve; as a rule, active = well fitted cell-killing curve with a large enough effect in the repeat runs; inconclusive = weak or mixed curves, or effect the other way; inactive = no such curve, though single readings can be large or run the other way.
Your answer must be one of the following: active, inactive

Fill in: this test's call for C[C@]12C=CC(=O)C=C1CC[C@@H]1[C@@H]2[C@@H](O)C[C@@]2(C)[C@H]1CC[C@]2(O)C(=O)COC(=O)CCC(=O)O is ___
inactive

Give the logged outcome of this assay for the following molecule: OC(CN1CCCCC1)c1cc(-c2ccccc2)on1 (stereo not drawn)
inactive

Record lookup: outcome of this test for COc1ccc2c(c1)N(C[C@H](C)CN(C)C)c1ccccc1S2 ?
active

What outcome does the record of this test show for NCCCNCCCCNC(=O)C(O)NC(=O)CCCCCCN=C(N)N (stereo not drawn) ?
inactive

Assay result, entry O=C(NOC[C@H](O)CO)c1ccc(F)c(F)c1Nc1ccc(I)cc1F — outcome?
inactive

Any idea what this test logged for C=CC1=C(C)C2=CC3=NC(=C(CC(=O)[O-])C4=NC(=C(C)C4=C([O-])[O-])C=c4[n-]c(c(C)c4CC)=CC1=N2)C(CCC(=O)[O-])C3C.[Cu+2].[Na+].[Na+].[Na+] (stereo not drawn) ?
active

Just curious, what result did CNC[C@@H]1CC[C@@H](N)[C@@H](O[C@H]2[C@H](O)[C@@H](O[C@H]3OC[C@](C)(O)[C@H](NC)[C@H]3O)[C@H](N)C[C@@H]2N)O1 get here?
inactive

Which result was noted for this molecule in the test: S=C=Nc1ccc(N=C=S)cc1
inactive
